Biological target: Mu-type opioid receptor (Homo sapiens)
Sequence (P35372 whole entry): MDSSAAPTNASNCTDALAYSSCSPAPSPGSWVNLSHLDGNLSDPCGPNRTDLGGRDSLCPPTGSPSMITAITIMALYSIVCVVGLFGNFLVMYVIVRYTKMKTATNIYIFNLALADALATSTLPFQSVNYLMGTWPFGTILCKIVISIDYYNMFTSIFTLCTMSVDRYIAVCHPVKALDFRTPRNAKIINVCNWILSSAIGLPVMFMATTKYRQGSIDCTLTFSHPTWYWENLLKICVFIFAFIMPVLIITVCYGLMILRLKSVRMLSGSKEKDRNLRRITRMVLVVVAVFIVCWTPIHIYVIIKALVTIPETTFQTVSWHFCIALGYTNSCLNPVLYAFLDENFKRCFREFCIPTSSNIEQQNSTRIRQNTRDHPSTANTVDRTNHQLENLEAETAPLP
Assay: Inhibition of DAMGO-induced beta-arrestin-2 recruitment at mu opioid receptor-1 (unknown origin) expressed in CHO cells preincubated for 30 mins followed by DAMGO addition measured after 90 mins by beta-galactosidase complementation assay
recordedMetric: pIC50
Give bare numbers, as −log10 of the molar value.

The compound identified as CC[C@@H]1CN2CC[C@]3(Nc4cccc(OC)c4C3=O)[C@@H]2C[C@@H]1/C(=C\OC)C(=O)OC registered its pIC50 at 7.47
